- Measurement Protocol: qHTS assay to identify inhibitors of the type 1 interferon - major histocompatibility complex class I in skeletal muscle: Counter screen cell viability and HiBit confirmation (AID 1347412); further: on the % scale 0 is the no-effect control and ±100 the full control effect; nearly all actives have a fitted effect of over 60% in size
- Settings: iHSKM muscle cells + IFN-b, HiBiT or CellTiter-Glo, 24 h; Viability; at 45.9 µM (top of the series)
Inconclusive results are not listed.
I'd be grateful if you could share measured activity change, negative = inhibition for these entries.
I only need the number, in %, no unit after it.

Provide activity change, negative = inhibition value for the following compound: `CO[C@H]1C(=O)[C@]2(C)[C@@H](OC)C[C@H]3OC[C@@]3(OC(C)=O)[C@H]2[C@H](OC(=O)c2ccccc2)[C@]2(O)C[C@H](OC(=O)[C@H](O)[C@@H](NC(=O)OC(C)(C)C)c3ccccc3)C(C)=C1C2(C)C`
-18.6

Provide only the value of recorded activity change, negative = inhibition for `CC(=O)Nc1ccc([C@H](C)C(=O)Nc2ncc(C(C)C)s2)cc1`
-0.582

Identify activity change, negative = inhibition associated with the compound `O=C(O)c1ccccc1C(=O)Nc1ccc(-c2ccccc2)cc1`
-4.23

Give activity change, negative = inhibition for `CCS(=O)(=O)N1CC(CC#N)(n2cc(-c3ncnc4[nH]ccc34)cn2)C1`
-4.12

* * *

- Measurement Protocol: qHTS of pediatric cancer cell lines to identify multiple opportunities for drug repurposing: Confirmatory screen for U-2 OS cells (AID 1347122); further: nearly all actives have a fitted effect of over 65% in size
- Settings: U-2 OS osteosarcoma cell viability; series mostly up to 45.9 µM
Results filed as inconclusive are left out. The source made the active and inactive calls. Calls follow the shape of the dose curve; as a rule, active = well fitted cell-killing curve with a large enough effect; inconclusive = small, poorly fitted or top-dose-only effect; inactive = no such curve, though single readings can be large or run the other way.
Select the correct class. Options are T for active, F for inactive and nothing else.

Outcome logged for `CN(C)C1CCN(C(=O)c2ccc(NC(=O)Nc3nc(N4CCOCC4)nc(N4CCOCC4)n3)cc2)CC1` in this assay:
T

// outcome(item) with item = `Oc1ccc(C2CCN(c3ccnc4ccccc34)CC2)cc1O`
T

For Cc1nnc(C(C)C)n1C1C[C@H]2CC[C@@H](C1)N2CC[C@H](NC(=O)C1CCC(F)(F)CC1)c1ccccc1 (stereo not given in full) , what call appears in the results of this test?
F

I'd appreciate the recorded outcome for `O=C(NCc1ccncc1)C12C[C@H]3C[C@@H](C1)CC(c1ccc(Cl)cc1)(C3)C2` from this test.
T

// return assay outcome for `COc1ccc(-c2nc(N3CCOCC3)c3sc(CN(C)c4ncc(C(=O)NO)cn4)cc3n2)cn1`
T

Tell me the recorded outcome of this test for `CC(=O)O[C@]1(C(C)=O)CC[C@@H]2[C@@H]3C[C@H](C)C4=CC(=O)CC[C@]4(C)[C@H]3CC[C@@]21C` .
F

What was the test verdict on `CC(=O)Nc1ccc([C@H](C)C(=O)Nc2ncc(C(C)C)s2)cc1` ?
T

Identify the outcome logged in this assay for the compound shown: `NC1=N[C@@]2(c3cc(NC(=O)c4ccc(F)cn4)ccc3F)COC[C@@H]2CS1`
F

Hi, sorry to bother you, what did the test record for `CCOc1ccc(Nc2nc(-c3c(C)nc4ccccn34)cs2)cc1` ?
T

Called result for `CCc1ccc(OCc2ccccc2C(=O)Nc2ccc3nc(C)cc(N)c3c2)cc1`
T

Returns: the outcome recorded for `NS(=O)(=O)c1cccc2c1C(=O)c1cccc(O)c1C2=O` in this assay.
T

Entry `COc1cc(N2CCC(N3CCN(C)CC3)CC2)ccc1Nc1ncc(Cl)c(Nc2ccccc2S(=O)(=O)C(C)C)n1` : call = ?
T

Record lookup: outcome of this test for `CN[C@@H](C)C(=O)N[C@H]1CN(C(=O)CC(C)C)CC[C@H]2CC[C@@H](C(=O)NC(c3ccccc3)c3ccccc3)N2C1=O` ?
F

// outcome(item) with item = `N[C@@]1(C(=O)O)CS(=O)(=O)[C@H]2[C@H](C(=O)O)[C@H]21`
F

Hi team, can someone confirm the assay call for `O=c1cc(-c2ccc(O)cc2)oc2cc(O)cc(O)c12` ?
F

Give the logged outcome of this assay for the following compound: `COc1cc2ncnc(Nc3ccc(F)c(Cl)c3)c2cc1OCCCN1CCOCC1`
T

Outcome logged for CC[C@]1(O)C[C@@H]2CN(CCc3c([nH]c4ccccc34)[C@@](C(=O)OC)(c3cc4c(cc3OC)N(C=O)[C@@H]3C45CCN4CC=C[C@](CC)([C@H]45)[C@@H](OC(C)=O)[C@]3(O)C(=O)OC)C2)C1 (stereo not given in full) in this assay:
F

Identify the outcome logged in this assay for the compound shown: `CC=C(C)C(=O)O[C@H]1C(C)=C[C@]23C(=O)[C@@H](C=C(CO)[C@@H](O)[C@]12O)[C@H]1[C@@H](C[C@H]3C)C1(C)C`
T

What call does the record list for `CC(C)n1nc(-c2ccc3oc(N)nc3c2)c2c(N)ncnc21` ?
T

I would be grateful if you could indicate the recorded call for `CC1(C)S[C@H]2[C@H](NC(=O)[C@@H](N)c3ccc(O)cc3)C(=O)N2[C@@H]1C(=O)O` .
F

* * *

- Measurement Protocol: Quantitative High-Throughput drug screen in 47 multiple myeloma cell lines against the NCATS MIPE library collection: U266_ATCC cell viability assay (AID 1919864); further: nearly all actives have a fitted effect of over 35% in size
- Settings: U266 myeloma viability, CellTiter-Glo ATP luminescence, 48 h; series mostly up to 45.8 µM
Inconclusive results are not listed. The source made the active and inactive calls. The call rests on the fitted dose curve; in most records, active means well fitted cell-killing curve with a large enough effect; inconclusive means small, poorly fitted or top-dose-only effect, or effect the other way; inactive means no such curve, though single readings can be large or run the other way.
Hello, when you answer, please use one of the following outcomes: yes (active), no (inactive)

What did the test return for O=C(NOCC(O)CO)c1cc(Br)c(F)c(F)c1Nc1ccc(I)cc1F (stereo not drawn) ?
no

Hey, what did the test say about `N[C@H](CSC(c1ccccc1)(c1ccccc1)c1ccccc1)C(=O)O` ?
no

Please share the test call associated with `CC(=O)N(C)C1(c2ccccc2)CCN(CCC[C@]2(c3ccc(Cl)c(Cl)c3)CCCN(C(=O)c3ccccc3)C2)CC1` .
yes

* * *

- Measurement Protocol: qHTS of pediatric cancer cell lines to identify multiple opportunities for drug repurposing: Confirmatory screen for BT-37 cells (AID 1347117);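 further: viability measured after 48 h of compound exposure; nearly all actives have a fitted effect of over 55% in size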
- Settings: BT-37 pediatric cancer cells, viability; series mostly up to 45.9 µM
Records with an inconclusive call do not appear. Active and inactive are the calls of the source. The call rests on the fitted dose curve; in most records, active means well fitted cell-killing curve with a large enough effect; inconclusive means small, poorly fitted or top-dose-only effect; inactive means no such curve, though single readings can be large or run the other way.
Just give me one of these, please: YES = active, NO = inactive

Call for entry `O=C(NCc1ccncc1)C12C[C@H]3C[C@@H](C1)CC(c1ccc(Cl)cc1)(C3)C2` :
YES

Recorded call for CC[C@]1(O)C[C@@H]2CN(CCc3c([nH]c4ccccc34)[C@@](C(=O)OC)(c3cc4c(cc3OC)N(C=O)[C@@H]3C45CCN4CC=C[C@](CC)([C@H]45)[C@@H](OC(C)=O)[C@]3(O)C(=O)OC)C2)C1 (stereo partly specified) ?
NO

I would be grateful if you could indicate the recorded call for `COc1cc(N2CCC(N3CCN(C)CC3)CC2)ccc1Nc1ncc(Cl)c(Nc2ccccc2S(=O)(=O)C(C)C)n1` .
YES

Per the assay record, what outcome was assigned to `CC1(C)CCC(CN2CCN(c3ccc(C(=O)NS(=O)(=O)c4ccc(NCC5CCOCC5)c([N+](=O)[O-])c4)c(Oc4cnc5[nH]ccc5c4)c3)CC2)=C(c2ccc(Cl)cc2)C1` ?
NO

Short answer needed: outcome of this test for `CC=C(C)C(=O)O[C@H]1C(C)=C[C@]23C(=O)[C@@H](C=C(CO)[C@@H](O)[C@]12O)[C@H]1[C@@H](C[C@H]3C)C1(C)C` ?
NO

What call does the record list for `CO[C@H]1C=CC=C(C)C(=O)NC2=CC(=O)C(NCCN(C)C)=C(C[C@@H](C)C[C@H](OC)[C@@H](O)[C@@H](C)C=C(C)[C@@H]1OC(N)=O)C2=O` ?
YES

* * *

- Measurement Protocol: Quantitative High-Throughput drug screen in 47 multiple myeloma cell lines against the NCATS MIPE library collection: FR4_PLB cell viability assay (AID 1918924; further: nearly all actives have a fitted effect of over 35% in size; further: potency means the concentration at half of the fitted maximal effect)
- Settings: FR4_PLB myeloma cells viability, CellTiter-Glo ATP, 48 h; series mostly up to 45.8 µM
Results filed as inconclusive are left out. The source made the active and inactive calls. The call rests on the fitted dose curve; in most records, active means well fitted cell-killing curve with a large enough effect; inconclusive means small, poorly fitted or top-dose-only effect, or effect the other way; inactive means no such curve, though single readings can be large or run the other way.
Quantity Kind: Potency

>>> result("CC(C)(C)NC(=O)Nc1cccc(Nc2ncc(F)c(NC(C)(C)CO)n2)c1")
"inactive"
>>> result("O=c1cc(-c2cccc3c2Sc2ccccc2S3)oc(N2CCOCC2)c1")
"26.4 µM (active)"
>>> result("O=C1c2c(O)cc(O)cc2O[C@H](c2cc(O)c(O)c(O)c2)[C@H]1O")
"26.4 µM (active)"
>>> result("O=C(NCc1ccncc1)C12C[C@H]3C[C@@H](C1)CC(c1ccc(Cl)cc1)(C3)C2")
"14.8 µM (active)"
>>> result("O=c1cc(N2CCOCC2)oc2c(-c3cccc4c3sc3ccccc34)cccc12")
"20.9 µM (active)"
>>> result("CS(=O)(=O)N(Cc1ccco1)CC(O)Cn1c2ccccc2c2ccccc21 (stereo not given)")
"inactive"

Could you please provide reported Potency for `CC1(C)CCC[C@@]2(C)[C@@H]1CC[C@@]1(C)OC(=O)C[C@H]21` ? Thanks!
14.8 µM (active)

Identify the reported Potency for the following entry. `CN1C[C@H]2c3ccccc3Oc3ccc(Cl)cc3[C@@H]2C1`
inactive

Note down Potency recorded for O=C(NOCC(O)CO)c1cc(Br)c(F)c(F)c1Nc1ccc(I)cc1F (stereo not given)
inactive

Dear colleague, please send me the reported Potency for `CC1(C)CCC2=C(O1)c1ccccc1C(=O)C2=O` when you can.
20.9 µM (active)
